All figures here come from PubChem BioAssay AID1259407.

Tested on: CCRIS mutagenicity, Ames/micronucleus/aberration tests
Assay: CCRIS mutagenicity studies
Conditions: Test System: AMES SALMONELLA TYPHIMURIUM; Strain/Indicator: TA100; Metabolic Activation: RAT, LIVER, S-9, AROCLOR 1254 (10%); Method: PREINCUBATION
Calls of active or inactive are those of the source. The rule behind the calls is not given here.
Outcome codes: yes (1) for active, no (0) for inactive

1) NC(N)=NC(N)=NCCc1ccccc1 | no (0)
2) OCCN1CN(CCO)CN(CCO)C1 | no (0)
3) OCCCBr | yes (1)
4) O=C(O)c1ccccc1-c1c2ccc(=O)cc-2oc2cc(O)ccc12 | no (0)
5) C=C1C/C(=C/C)C(=O)O[C@@H]2CCN3CC=C(COC(=O)[C@@]1(O)CO)[C@H]23 | no (0)
6) O=C(O)CN(CCN(CC(=O)O)CC(=O)O)CC(=O)O | no (0)
7) CCCCCCCCCCCCOCCO | no (0)
8) CCN(CC)CC | no (0)
9) O=[N+]([O-])c1cc([As](=O)(O)O)ccc1O | no (0)
10) CCOP(=S)(OCC)SCSC(C)(C)C | no (0)
11) COc1ccc(/C=N/n2nnc3c([nH]c4ccccc43)c2=O)cc1 | yes (1)
12) C=C[Si](OCC)(OCC)OCC | no (0)
13) CCOC(=O)C1OC1c1ccccc1 (stereo not given) | no (0)
14) CC(C)OCC1CO1 (stereo not given) | yes (1)
15) Nc1n[nH]c(N)n1 | no (0)
16) CCC(CO)[N+](=O)[O-] (stereo not given) | no (0)
17) Cc1ccc(S(=O)(=O)Oc2ccc(N=Nc3ccc(-c4ccc(N=Nc5c(O)ccc6cc(S(=O)(=O)O)cc(S(=O)(=O)O)c56)c(C)c4)cc3C)cc2)cc1 | no (0)
18) CCN1CCOCC1 | no (0)
19) COc1ccc(CN(CCN(C)C)c2ncccn2)cc1 | no (0)
20) c1ccc(N=NNc2ccccc2)cc1 | yes (1)
21) C[CH2][Hg][S]c1ccccc1C(=O)O | no (0)
22) O=[N+]([O-])c1c2ccccc2cc2ccccc12 | yes (1)
23) O=C1c2c(O)cccc2Cc2cccc(O)c21 | no (0)
24) O=C1CSC(=S)N1 | no (0)
25) CCCCCCC=O | no (0)
26) O=NN1CCCCC1 | yes (1)
27) O=[N+]([O-])c1c(O)c(Cl)cc(Cl)c1Cl | no (0)
28) CCCCCCCC(=O)O | no (0)
29) O=[N+]([O-])c1ccc(CCO)cc1 | yes (1)
30) CCNc1nc(Cl)nc(NC(C)C)n1 | no (0)
